Property: IC50; scope: individual compounds
tested target: H1047R PIK3CA enzyme (Homo sapiens, UniProt P42336, H1047R)
Sequence (P42336 whole entry H1047R): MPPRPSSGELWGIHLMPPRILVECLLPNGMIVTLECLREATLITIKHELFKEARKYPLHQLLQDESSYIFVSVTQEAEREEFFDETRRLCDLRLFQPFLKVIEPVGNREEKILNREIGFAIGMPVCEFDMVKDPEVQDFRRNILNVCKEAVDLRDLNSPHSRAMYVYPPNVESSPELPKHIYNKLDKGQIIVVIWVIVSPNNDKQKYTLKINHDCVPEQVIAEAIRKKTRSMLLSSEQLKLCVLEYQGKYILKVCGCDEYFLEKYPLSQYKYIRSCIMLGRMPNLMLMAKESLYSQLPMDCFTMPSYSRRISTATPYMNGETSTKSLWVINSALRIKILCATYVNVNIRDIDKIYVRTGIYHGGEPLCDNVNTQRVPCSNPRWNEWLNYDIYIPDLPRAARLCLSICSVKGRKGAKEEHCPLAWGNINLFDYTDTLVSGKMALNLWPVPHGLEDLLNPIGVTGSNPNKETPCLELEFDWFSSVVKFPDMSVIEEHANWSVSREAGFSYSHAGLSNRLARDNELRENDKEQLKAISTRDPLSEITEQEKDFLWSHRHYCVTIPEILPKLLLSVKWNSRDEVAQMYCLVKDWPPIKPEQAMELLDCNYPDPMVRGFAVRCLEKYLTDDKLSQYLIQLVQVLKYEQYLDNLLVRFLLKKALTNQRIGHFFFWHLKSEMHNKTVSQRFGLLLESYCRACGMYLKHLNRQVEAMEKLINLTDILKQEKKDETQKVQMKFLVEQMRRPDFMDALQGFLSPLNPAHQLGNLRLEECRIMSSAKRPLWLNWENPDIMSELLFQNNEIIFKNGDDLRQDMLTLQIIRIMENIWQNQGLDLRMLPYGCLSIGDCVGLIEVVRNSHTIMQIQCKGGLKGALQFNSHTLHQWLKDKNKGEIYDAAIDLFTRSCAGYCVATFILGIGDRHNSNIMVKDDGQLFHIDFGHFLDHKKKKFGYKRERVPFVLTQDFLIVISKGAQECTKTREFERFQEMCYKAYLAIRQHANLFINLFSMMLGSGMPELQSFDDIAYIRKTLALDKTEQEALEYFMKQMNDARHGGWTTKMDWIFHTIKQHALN
Sequence (P27986 whole entry partner): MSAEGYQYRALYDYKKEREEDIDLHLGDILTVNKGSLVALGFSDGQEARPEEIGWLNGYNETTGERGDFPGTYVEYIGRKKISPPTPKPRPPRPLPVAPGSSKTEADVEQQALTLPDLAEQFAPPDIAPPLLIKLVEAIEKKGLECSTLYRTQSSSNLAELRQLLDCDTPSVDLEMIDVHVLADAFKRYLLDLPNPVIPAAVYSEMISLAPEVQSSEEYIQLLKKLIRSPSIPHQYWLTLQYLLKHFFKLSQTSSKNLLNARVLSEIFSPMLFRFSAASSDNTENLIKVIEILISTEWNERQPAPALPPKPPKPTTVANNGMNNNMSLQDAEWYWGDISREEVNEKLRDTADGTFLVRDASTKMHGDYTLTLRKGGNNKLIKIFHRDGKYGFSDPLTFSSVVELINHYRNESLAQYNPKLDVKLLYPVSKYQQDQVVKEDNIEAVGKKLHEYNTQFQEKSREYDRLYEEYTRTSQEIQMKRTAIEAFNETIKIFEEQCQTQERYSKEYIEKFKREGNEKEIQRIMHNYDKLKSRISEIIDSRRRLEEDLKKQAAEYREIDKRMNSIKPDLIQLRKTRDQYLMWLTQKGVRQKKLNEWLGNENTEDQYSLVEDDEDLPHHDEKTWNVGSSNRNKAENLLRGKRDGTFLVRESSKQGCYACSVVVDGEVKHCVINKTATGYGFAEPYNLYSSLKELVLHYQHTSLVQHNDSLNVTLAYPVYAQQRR
assay overview: ADP-Glo Biochemical PIK3CA Kinase Assay
measurement name: IC50

compound: Cc1ccccc1C1NC(=O)c2c(CCO)ccc(NC(=O)c3csc4ccccc34)c21 (centres unmarked)
result: ≤ 0.1 µM
--
compound: O=C1N[C@@H](c2cc(F)ccc2Cl)c2c(NC(=O)N3C[C@](O)(C(F)F)c4ccccc43)cccc21 (single isomer, unassigned)
result: 1 to 10 µM
--
compound: CC(c1nn[nH]c1C(=O)Nc1cccc2c1C(c1cc(F)ccc1Cl)NC2=O)C(F)(F)F (mixture of isomers)
result: 10 to 100 µM
--
compound: O=C1N[C@H](c2cc(F)ccc2Cl)c2c(NC(=O)N3C[C@](O)(C(F)F)c4ccccc43)cccc21 (single isomer, unassigned)
result: 10 to 100 µM
--
compound: O=C1NC(c2cc(F)ccc2Cl)c2c(Nc3nccc4cccnc34)cc(Br)cc21 (centres unmarked)
result: 10 to 100 µM
--
compound: O=C1NC(c2cc(F)ccc2Cl)c2c(NC(=O)N3CCCC(F)(F)C3)cc(Br)cc21 (centres unmarked)
result: 1 to 10 µM
--
compound: N#CCc1cc(NC(=O)N2C[C@@](O)(C(F)F)c3cc(F)ccc32)c2c(c1)C(=O)N[C@H]2c1cc(F)ccc1Cl (single isomer, unassigned)
result: 0.1 to 0.5 µM
--
compound: O=C1NC(c2cc(F)ccc2Cl)c2c(NC(=O)N3CCc4ccc(C(F)(F)F)cc43)cccc21 (centres unmarked)
result: 1 to 10 µM
--
compound: Cc1ccccc1C1NC(=O)c2cccc(NC(=O)C(F)(F)F)c21 (centres unmarked)
result: 10 to 100 µM
--
compound: COc1cc(NC(=O)c2cc(F)cc(C(F)(F)F)c2)c2c(c1)C(=O)NC2c1cc(F)ccc1Cl (centres unmarked)
result: ≤ 0.1 µM
--
compound: O=C1NC(c2cc(F)ccc2Cl)c2c(NC(=O)c3ccnc4ccc(Cl)cc34)cc(Br)cc21 (centres unmarked)
result: 10 to 100 µM
--
compound: O=C(Nc1cc(CS(=O)(=O)Nc2cccnc2)cc2c1C(c1cc(F)ccc1Cl)NC2=O)c1cc(F)cc(C(F)(F)F)c1 (centres unmarked)
result: ≤ 0.1 µM
--
compound: O=C(Nc1cc(Br)cc2c1C(c1cc(F)ccc1Cl)NC2=O)c1cc(F)ccc1OC(F)(F)F (centres unmarked)
result: 1 to 10 µM
--
compound: O=C(Nc1cc(CC(O)CCO)cc2c1C(c1cc(F)ccc1Cl)NC2=O)c1cc(F)cc(C(F)(F)F)c1 (centres unmarked)
result: ≤ 0.1 µM

* * *

Measured IC50, listed per entry for reference.
tested target: H1047R PIK3CA enzyme (Homo sapiens, UniProt P42336, H1047R)
assay overview: ADP-Glo Biochemical PIK3CA Kinase Assay

compound: O=C(Nc1cc(-c2ccc3nccn3n2)cc2c1C(c1cc(F)ccc1Cl)NC2=O)c1cc(F)cc(C(F)(F)F)c1 (stereo not shown) [Compound I-905]
IC50: ≤ 0.1 µM
//
compound: C[C@@H](CCC(F)(F)F)C(=O)Nc1cccc2c1[C@@H](c1cc(F)ccc1Cl)NC2=O [Compound I-2141]
IC50: 10 to 100 µM
//
compound: O=C1NC(c2cc(F)ccc2Cl)c2c(NC(=O)N3CCn4c(nnc4C(F)(F)F)C3)cccc21 (stereo not shown) [Compound I-2111]
IC50: 10 to 100 µM
//
compound: O=C1NC(c2cc(F)ccc2Cl)c2c(NC(=O)C3CCNCC3)cc(-c3ccc4ncnn4c3)cc21 (stereo not shown) [Compound I-1751]
IC50: 10 to 100 µM

* * *

tested target: H1047R PIK3CA enzyme (Homo sapiens, UniProt P42336, H1047R)
assay overview: ADP-Glo Biochemical PIK3CA Kinase Assay
pIC50: −log10 of the molar value.
Listing of entries alongside the reported pIC50.

molecule: O=C(CC1CCc2ccccc21)Nc1cc(Br)cc2c1C(c1cc(F)ccc1Cl)NC2=O (stereo not drawn) [Compound I-599]
pIC50: 4.00 to 5.00
--
molecule: O=C1N[C@@H](c2cc(F)ccc2Cl)c2c(NC(=O)N3C[C@](O)(C(F)F)c4cc(F)ccc43)cccc21 (single isomer, unassigned) [Compound I-2557]
pIC50: 5.00 to 6.00
--
molecule: O=C1NC(c2cc(F)ccc2Cl)c2c(NC(=O)N3CCCCC3)cc(-c3ccc4ncnn4c3)cc21 (stereo not drawn) [Compound I-1663]
pIC50: 5.00 to 6.00
--
molecule: O=C1N[C@@H](c2cc(F)ccc2Cl)c2c(NC(=O)N3C[C@@H](O)c4cc(F)c(F)cc43)cccc21 (single isomer, unassigned) [Compound I-2293]
pIC50: ≥ 7.00
--
molecule: CC(=O)N1CCC(C2NC(=O)c3cccc(NC(=O)c4cc(F)cc(C(F)(F)F)c4)c32)CC1 (stereo not drawn) [Compound I-1818]
pIC50: 4.00 to 5.00
--
molecule: O=C1N[C@@H](c2cc(F)ccc2Cl)c2c(NC(=O)N3CCc4ccccc43)cc(-c3ccc4ncnn4c3)cc21 (stereo in doubt) [Compound I-1715]
pIC50: ≥ 7.00
--
molecule: Cn1nc(C(F)F)cc1-c1cc(NC(=O)c2cc(F)cc(C(F)(F)F)c2)c2c(c1)C(=O)N[C@H]2c1cc(F)ccc1Cl [Compound I-1881]
pIC50: ≥ 7.00
--
molecule: CN(Cc1cccc(O)c1)C(=O)Nc1cc(Br)cc2c1C(c1cc(F)ccc1Cl)NC2=O (stereo not drawn) [Compound I-1382]
pIC50: 4.00 to 5.00
--
molecule: COc1ccc(C(=O)Nc2cc(Br)cc3c2C(c2cc(F)ccc2Cl)NC3=O)cc1 (stereo not drawn) [Compound I-465]
pIC50: 4.00 to 5.00
--
molecule: O=C(Nc1cccc2c1C(c1cc(F)ccc1Cl)NC2=O)c1csc2c1CCCC2 (stereo not drawn) [Compound I-2239]
pIC50: ≥ 7.00
--
molecule: Cc1ccccc1C1NC(=O)c2nccc(NC(=O)N3CCc4ccccc43)c21 (stereo not drawn) [Compound I-147]
pIC50: 6.30 to 7.00
--
molecule: Cn1ncnc1Nc1cc(NC(=O)c2cc(F)cc(C(F)(F)F)c2)c2c(c1)C(=O)NC2c1cc(F)ccc1Cl (stereo not drawn) [Compound I-974]
pIC50: ≥ 7.00
--
molecule: N#Cc1cnc2ccc(-c3cc(NC(=O)c4cc(F)cc(C(F)(F)F)c4)c4c(c3)C(=O)NC4c3cc(F)ccc3Cl)cc2c1 (stereo not drawn) [Compound I-1603]
pIC50: ≥ 7.00
--
molecule: Cn1ncc2c(C(=O)Nc3cccc4c3C(c3cc(F)ccc3Cl)NC4=O)cc(F)cc21 (stereo not drawn) [Compound I-871]
pIC50: 4.00 to 5.00
--
molecule: Cn1ccc(-c2cc(NC(=O)c3cc(F)cc(C(F)(F)F)c3)c3c(c2)C(=O)NC3c2cc(F)ccc2Cl)n1 (stereo not drawn) [Compound I-947]
pIC50: ≥ 7.00
--
molecule: O=C1N[C@@H](c2cc(F)ccc2Cl)c2c(NC(=O)N3C[C@](O)(C(F)(F)F)c4cc(F)ccc43)ccnc21 (single isomer, unassigned) [Compound I-2701]
pIC50: 5.00 to 6.00
--
molecule: Cn1nccc1C(O)c1cc(NC(=O)c2cc(F)cc(C(F)(F)F)c2)c2c(c1)C(=O)NC2c1cc(F)ccc1Cl (stereo not drawn) [Compound I-1389]
pIC50: ≥ 7.00
--
molecule: CN1CCN(Cc2cc(NC(=O)c3cc(F)cc(C(F)(F)F)c3)c3c(c2)C(=O)NC3c2cc(F)ccc2Cl)CC1=O (stereo not drawn) [Compound I-1235]
pIC50: 6.30 to 7.00
--
molecule: CN(C(=O)Nc1cccc2c1C(c1cc(F)ccc1Cl)NC2=O)c1ccc(F)cc1 (stereo not drawn) [Compound I-2435]
pIC50: 4.00 to 5.00
--
molecule: O=C1N[C@H](c2cc(F)ccc2Cl)c2c(N[C@H]3CCOc4ccccc43)cc(-c3cnn(C(F)F)c3)nc21 (single isomer, unassigned) [Compound I-2159]
pIC50: 5.00 to 6.00
--
molecule: O=C1N[C@@H](c2cc(F)ccc2Cl)c2c(NC(=O)N3C[C@](O)(C(F)(F)F)c4cc(F)ccc43)cc(Cl)cc21 (single isomer, unassigned) [Compound I-2511]
pIC50: 6.30 to 7.00
--
molecule: Nc1cccc2c(=O)[nH]n(Cc3ccccc3)c12 [Compound I-103]
pIC50: 4.00 to 5.00
--
molecule: O=C(Nc1cccc2c1[C@@H](CC1CCCC1)NC2=O)c1cc(F)cc(C(F)(F)F)c1 [Compound I-2154]
pIC50: 5.00 to 6.00
--
molecule: CNc1nc2ccc(-c3cc(NC(=O)c4cc(F)cc(C(F)(F)F)c4)c4c(c3)C(=O)NC4c3cc(F)ccc3Cl)cn2n1 (stereo not drawn) [Compound I-2125]
pIC50: ≥ 7.00
--
molecule: O=C(Nc1cccc2c1[C@H](NC1CCCC1)NC2=O)c1cc(F)cc(C(F)(F)F)c1 (single isomer, unassigned) [Compound I-2250]
pIC50: 4.00 to 5.00
--
molecule: O=C(Nc1cccc2c1[C@H]([C@@H]1CCCCC1=O)NC2=O)c1cc(F)cc(C(F)(F)F)c1 (racemic) [Compound I-2036]
pIC50: 4.00 to 5.00
--
molecule: CC(O)c1cc(NC(=O)N2CC(O)c3ccccc32)c2c(c1)C(=O)NC2c1cc(F)ccc1Cl (stereo not drawn) [Compound I-2288]
pIC50: ≥ 7.00

Entry source: patent US12581252B2
